# METHOD NOTES: Fluorescence properties of the new compounds (excitation and emission wavelengths)
# Format: physicochemical
# CONDITION SET: free compound
METRIC NAME: Fluorescence Excitation (nm)

# COMPOUND, READING UNIT, Fluorescence Excitation (nm)
measured = [
    ("CC(O)C(CO)NC(=O)c1c2ccccc2nc2ccccc12 (stereo not shown)", "nm", 358),
    ("OC[C@H](O)CNc1c2ccccc2nc2ccccc12", "nm", 433),
    ("CC(=O)NCCN(CC(=O)NCCN(CC(=O)NCCCCCCO)C(=O)CNC(=O)c1c2ccccc2nc2c1[nH]c1ccccc12)C(=O)CNC(=O)c1c2ccccc2nc2c1[nH]c1ccccc12", "nm", 349),
    ("CC(=O)NC1CC(C(=O)NC2CC(C(=O)NC3CC(C(N)=O)N(C(=O)CNC(=O)c4c5ccccc5nc5c4[nH]c4ccccc45)C3)N(C(=O)CNC(=O)c3c4ccccc4nc4ccccc34)C2)N(C(=O)CNC(=O)c2c3ccccc3nc3c2[nH]c2ccccc23)C1 (stereo not shown)", "nm", 348),
    ("C[C@@H](O)[C@H](CO)NC(=O)CN1c2ccccc2C=C2C3C=CC=CC3=NC21 (stereo partly shown)", "nm", 261),
    ("CC(O)C(COP(=O)(O)OC(C)C(COP(=O)(O)OC(C)C(CO)NC(=O)c1c2ccccc2nc2ccccc12)NC(=O)c1c2ccccc2nc2ccccc12)NC(=O)c1c2ccccc2nc2ccccc12 (stereo not shown)", "nm", 360),
    ("CC(O)C(COP(=O)(O)OC(C)C(COP(=O)(O)OC(C)C(CO)NC(=O)c1c2ccccc2nc2c1[nH]c1ccccc12)NC(=O)c1c2ccccc2nc2c1[nH]c1ccccc12)NC(=O)c1c2ccccc2nc2c1[nH]c1ccccc12 (stereo not shown)", "nm", 359),
    ("CC(=O)NC1CC(C(=O)NC2CC(C(=O)NC3CC(C(=O)NC4CC(C(=O)NC5CC(C(=O)NC6CC(C(=O)NC7CC(C(N)=O)N(C(=O)CNC(=O)c8cc(-c9ccccc9)nc9ccccc89)C7)N(C(C)=O)C6)N(C(C)=O)C5)N(C(=O)CNC(=O)c5c6ccccc6nc6ccccc56)C4)N(C(C)=O)C3)N(C(C)=O)C2)N(C(=O)CNC(=O)c2c3ccccc3nc3c2[nH]c2ccccc23)C1 (stereo not shown)", "nm", 269),
    ("CC(OP(=O)(O)OCC(O)CNc1c2nc3ccccc3c-2n(C)c2ccccc12)C(CO)NC(=O)c1c2ccccc2nc2c1[nH]c1ccccc12 (stereo not shown)", "nm", 275),
    ("CC(=O)N[C@H]1C[C@@H](C(=O)N[C@H]2C[C@@H](C(=O)N[C@H]3C[C@@H](C(N)=O)N(C(=O)CNC(=O)c4c5ccccc5nc5ccccc45)C3)N(C(=O)CNC(=O)c3c4ccccc4nc4ccccc34)C2)N(C(=O)CNC(=O)c2c3ccccc3nc3c2[nH]c2ccccc23)C1", "nm", 309),
]

====

# METHOD NOTES: Fluorescence properties of the new compounds (excitation and emission wavelengths)
# Format: physicochemical
# CONDITION SET: free compound
METRIC NAME: Fluorescence Excitation (nm)

# MOLECULE, Fluorescence Excitation (nm)
measured = [
    ("CC(O)C(COP(=O)(O)OC(C)C(CO)NC(=O)c1c2ccccc2nc2ccccc12)NC(=O)c1cc(-c2ccccc2)nc2ccccc12 (centres unmarked)", 252),
    ("CC(=O)N[C@@H](CCCNC(=O)CNC(=O)c1c2ccccc2nc2ccccc12)C(=O)N[C@@H](CCCNC(=O)CNC(=O)c1c2ccccc2nc2ccccc12)C(=O)N[C@@H](CCCNC(=O)CNC(=O)c1c2ccccc2nc2ccccc12)C(N)=O", 360),
    ("CC(OP(O)(=S)OC[C@@H](O)CNc1c2nc3ccccc3c-2n(C)c2ccccc12)C(CO)NC(=O)c1c2ccccc2nc2ccccc12 (some centres unmarked)", 359),
    ("CC(=O)NC1CC(C(N)=O)N(C(=O)CNC(=O)c2c3ccccc3nc3ccccc23)C1 (centres unmarked)", 282),
    ("CC(OP(=O)(O)OCC(O)CNc1c2nc3ccccc3c-2n(C)c2ccccc12)C(CO)NC(=O)c1c2ccccc2nc2ccccc12 (centres unmarked)", 353),
    ("CC(=O)NC1CC(C(=O)NC2CC(C(N)=O)N(C(=O)CNC(=O)c3c4ccccc4nc4ccccc34)C2)N(C(=O)CNC(=O)c2c3ccccc3nc3c2[nH]c2ccccc23)C1 (centres unmarked)", 273),
    ("CC(=O)N1CC(NC(=O)CNC(=O)c2c3ccccc3nc3c2[nH]c2ccccc23)C[C@H]1C(=O)N1CC(NC(=O)CNC(=O)c2c3ccccc3nc3c2[nH]c2ccccc23)C[C@H]1C(N)=O (some centres unmarked)", 348),
    ("CC(=O)N[C@@H](CCCNC(=O)CNC(=O)c1c2ccccc2nc2ccccc12)C(=O)N[C@@H](CCCNC(=O)CNC(=O)c1c2ccccc2nc2c1[nH]c1ccccc12)C(=O)N[C@@H](CCCNC(=O)CNC(=O)c1c2ccccc2nc2c1[nH]c1ccccc12)C(N)=O", 248),
    ("CC(O)C(COP(=O)(O)OC(C)C(COP(=O)(O)OC(C)C(CO)NC(=O)c1c2ccccc2nc2ccccc12)NC(=O)c1c2ccccc2nc2c1[nH]c1ccccc12)NC(=O)CNC(=O)c1c2ccccc2nc2ccccc12 (centres unmarked)", 359),
    ("CC(O)C(COP(=O)(O)OC(C)C(COP(=O)(O)OC(C)C(CO)NC(=O)c1c2ccccc2nc2ccccc12)NC(=O)c1c2ccccc2nc2c1[nH]c1ccccc12)NC(=O)Cn1c2nc3ccccc3c-2cc2ccccc21 (centres unmarked)", 271),
    ("CC(O)C(CO)NC(=O)c1c2ccccc2nc2c1[nH]c1ccccc12 (centres unmarked)", 346),
]

====

# METHOD NOTES: Fluorescence properties of the new compounds (excitation and emission wavelengths)
# Type: physicochemical
# CONDITION SET: free compound
METRIC NAME: Fluorescence Excitation (nm)

# COMPOUND, Fluorescence Excitation (nm)
measured = [
    ("CC(O)C(CO)NC(=O)CNC(=O)c1c2ccccc2nc2ccccc12 (stereo not drawn) [Compound 2d]", 247),
    ("CC(=O)NC1CC(C(=O)NC2CC(C(=O)NC3CC(C(=O)NC4CC(C(=O)NC5CC(C(N)=O)N(C(=O)CNC(=O)c6cc(-c7ccccc7)nc7ccccc67)C5)N(C(C)=O)C4)N(C(=O)CNC(=O)c4c5ccccc5nc5ccccc45)C3)N(C(C)=O)C2)N(C(=O)CNC(=O)c2c3ccccc3nc3c2[nH]c2ccccc23)C1 (stereo not drawn) [Example 64]", 347),
    ("CC(=O)N[C@@H](CCCNC(=O)CNC(=O)c1c2ccccc2nc2ccccc12)C(=O)N[C@@H](CCCNC(=O)CNC(=O)c1c2ccccc2nc2c1[nH]c1ccccc12)C(=O)N[C@@H](CCCNC(=O)CNC(=O)c1c2ccccc2nc2ccccc12)C(N)=O [Example 69]", 357),
    ("CC(O)C(COP(=O)(O)OC(C)C(CO)NC(=O)c1c2ccccc2nc2c1[nH]c1ccccc12)NC(=O)c1c2ccccc2nc2c1[nH]c1ccccc12 (stereo not drawn) [Example 28]", 346),
    ("CC(O)C(COP(=O)(O)OC(C)C(COP(=O)(O)OC(C)C(CO)NC(=O)c1c2ccccc2nc2ccccc12)NC(=O)c1c2ccccc2nc2c1[nH]c1ccccc12)NC(=O)c1c2ccccc2nc2c1[nH]c1ccccc12 (stereo not drawn) [Example 29]", 353),
    ("NC(=O)CCCOP(=O)(O)O[C@H](CNc1c2ccccc2nc2ccccc12)COP(=O)(O)O[C@@H](CO)CNc1c2ccccc2nc2ccccc12 [Example 33]", 359),
    ("CC(=O)NC1CC(C(=O)NC2CC(C(=O)NC3CC(C(=O)NC4CC(C(=O)NC5CC(C(N)=O)N(C(=O)CNC(=O)c6c7ccccc7nc7c6[nH]c6ccccc67)C5)N(C(C)=O)C4)N(C(=O)CNC(=O)c4cc(-c5ccccc5)nc5ccccc45)C3)N(C(C)=O)C2)N(C(=O)CNC(=O)c2c3ccccc3nc3ccccc23)C1 (stereo not drawn) [Example 65]", 249),
    ("CC(=O)NC1CC(C(=O)NC2CC(C(=O)NC3CC(C(=O)NC4CC(C(=O)NC5CC(C(=O)NC6CC(C(=O)NC7CC(C(N)=O)N(C(=O)CNC(=O)c8c9ccccc9nc9c8[nH]c8ccccc89)C7)N(C(C)=O)C6)N(C(C)=O)C5)N(C(=O)CNC(=O)c5cc(-c6ccccc6)nc6ccccc56)C4)N(C(C)=O)C3)N(C(C)=O)C2)N(C(=O)CNC(=O)c2c3ccccc3nc3ccccc23)C1 (stereo not drawn) [Example 67]", 265),
    ("CC(=O)NC1CC(C(=O)NC2CC(C(N)=O)N(C(=O)CNC(=O)c3c4ccccc4nc4c3[nH]c3ccccc34)C2)N(C(=O)CNC(=O)c2c3ccccc3nc3ccccc23)C1 (stereo not drawn) [Example 55]", 308),
]
